pIC50: recorded values
Test system: NCI-H1581
Experiment: Antiproliferative activity against human NCI-H1581 cells after 72 hrs by CCK-8 assay
Format: functional, cell-based
Conditions: NCI-H1581, 72 h
Scale note: pIC50 = -log10(concentration in M).

{"smilesInput": "COc1cc(OC)c(Cl)c(-c2ccc3c(NC(=O)c4ccc(N5CCOCC5)cc4)n[nH]c3n2)c1Cl", "obsValue": 6.06}

Q) I would be grateful if you could share the reported pIC50 for COc1cc(OC)c(Cl)c(-c2ccc3c(NC(=O)c4ccc(N5CCN(C)CC5)cc4)n[nH]c3c2)c1Cl .
A) 6.49

Q) COc1cc(OC)c(Cl)c(-c2ccc3c(NC(=O)c4ccc(N5CCCN(C)CC5)cc4)n[nH]c3n2)c1Cl , same question.
A) 8.89

Q) COc1cc(OC)c(Cl)c(-c2ccc3c(NC(=O)c4ccc(N(C)CCN(C)C)cc4)n[nH]c3n2)c1Cl , same question.
A) 7.96
